# measured-target: T1, recombinant human CD73 extracellular domain (Trp27-Lys546) with C-terminal 6-histidine tag (human, UniProt P21589 27-547)
# T1 construct: also called hCD73; hCD73-cHis
# T1 sequence: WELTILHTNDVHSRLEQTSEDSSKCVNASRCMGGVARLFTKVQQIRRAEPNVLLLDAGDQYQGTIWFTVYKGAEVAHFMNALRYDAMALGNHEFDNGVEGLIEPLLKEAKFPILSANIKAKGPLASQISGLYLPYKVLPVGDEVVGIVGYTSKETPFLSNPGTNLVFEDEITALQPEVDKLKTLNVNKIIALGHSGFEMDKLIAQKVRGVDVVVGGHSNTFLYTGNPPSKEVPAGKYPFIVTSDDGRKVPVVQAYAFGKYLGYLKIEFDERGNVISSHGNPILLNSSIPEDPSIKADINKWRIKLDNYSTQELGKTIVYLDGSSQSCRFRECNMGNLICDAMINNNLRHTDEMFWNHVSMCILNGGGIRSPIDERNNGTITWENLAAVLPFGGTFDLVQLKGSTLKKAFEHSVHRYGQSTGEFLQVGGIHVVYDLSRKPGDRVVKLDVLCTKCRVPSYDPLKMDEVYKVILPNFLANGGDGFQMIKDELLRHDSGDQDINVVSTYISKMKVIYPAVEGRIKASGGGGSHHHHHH
# experimental-protocol: ELISA, plate coated with recombinant CD73 extracellular domain
measured-quantity: pEC50
Just so you know, pEC50 here is -log10 of the concentration in molar units; reply with that number alone.

{"binder": "CD73 antibody 14E4 (antibody, V domains shown, Mouse variable regions on human IgG heavy chain constant region and human kappa constant region (chimeric IgG); also called Clone 14E4) VH: QVQLQQSGPELVKPGASVKISCKASGYIFTNYYIHWVKQRPGQGLEWIGWIFPGSGNTKYSEKFKDKATLTADTSSSTAYMQLSSLTSEDSAVYFCAGLSDWGQGTTLTVSS VL: DIQMTQSPSSLSASLGERVSLTCRASQDIGDRLIWLQQEPAGTFKRLIYATSSLDSGVPKRFSGSRSGSDYSLTISSLESEDFVDYYCLQYASSPWTFGGGTKLEIK", "pEC50": 10.22}
{"binder": "CD73 antibody 22C12 (antibody, V domains shown, Mouse variable regions on human IgG heavy chain constant region and human kappa constant region (chimeric IgG); also called Clone 22C12; mAb22C12) VH: QVQFQQSGAELARPGASVKLSCKASGYTFTGYWIQWVKQRPGQGLEWIGAIYPGDDDTRYTQKFKGRATLTADTSSSTAYMQLSSLASEDSAVYYCARGNWDDWDFDVWGAGTTVTVSS VL: DIQMTQTTSSLSASLGDRVTISCRASQDISNYLNWYQQKPDGTVKLLIHYTSRLHSGVPSRFSGSGSGTDYSLTISNLEQEDIATYFCQQGDTLPWTFGGGTKLEIK", "pEC50": 10.40}
{"binder": "CD73 antibody 2D4 (antibody, V domains shown, also called Clone 2D4) VH: EVKLVESGGGLVQPGGSLKLSCATSGFTFSDYYMYWVRQTPEKRLEWVAYISNVGGSTYYPDTVKGRFTISRDNAKNTLYLQMSRLKSEDTAIYYCARGDGYYGYYFDVWGAGTTVTVSS VL: QIVLTQSPAIMSASPGEKVTMTCSASSSVSYMHWYQQKSGTSPKRWIYDTSKLASGVPARFSGSGSGTSYSLTISSMEAEDAATYYCQQWSSNPYTFGGGTKLEIK", "pEC50": 10.70}

Returns the measured pEC50 for the input binder. Input: CD73 antibody 14H10 (antibody, V domains shown, Mouse variable regions on human IgG heavy chain constant region and human kappa constant region (chimeric IgG)) VH: QIQLQQSGAELARPGASVNLSCKASGYSFTSYWMQWLKQRPGQGLEWIGAIYPGDGDTRYTQKFKGKATLTADKSSSTAYMQLSSLASEDSAVYYCALFSYWGQGTLVTVSA VL: DIQMTQSPSSLSASLGERVSLTCRASQDIGSSLNWLQQEPDGTFKRLIYATSTLDSGVPKRFSGSRSGSDYSLTISSLESEDFVDYYCLQYASFPYTFGGGTKLEIK
10.52
